List of pKd values.
Target: T1, trigger factor (TF) (E. coli, UniProt P0A850 1-432)
T1 construct: Escherichia coli trigger factor, 48 kDa; domains TFN, TFP, TFA; expressed from pProEXHTa TF; In SPR it was amine-coupled to the chip; also called wild type TF; full-length TF; source: E. coli BL21(DE3), purified (Ni-NTA; His-tag removed with TEV protease)
T1 sequence (looked up): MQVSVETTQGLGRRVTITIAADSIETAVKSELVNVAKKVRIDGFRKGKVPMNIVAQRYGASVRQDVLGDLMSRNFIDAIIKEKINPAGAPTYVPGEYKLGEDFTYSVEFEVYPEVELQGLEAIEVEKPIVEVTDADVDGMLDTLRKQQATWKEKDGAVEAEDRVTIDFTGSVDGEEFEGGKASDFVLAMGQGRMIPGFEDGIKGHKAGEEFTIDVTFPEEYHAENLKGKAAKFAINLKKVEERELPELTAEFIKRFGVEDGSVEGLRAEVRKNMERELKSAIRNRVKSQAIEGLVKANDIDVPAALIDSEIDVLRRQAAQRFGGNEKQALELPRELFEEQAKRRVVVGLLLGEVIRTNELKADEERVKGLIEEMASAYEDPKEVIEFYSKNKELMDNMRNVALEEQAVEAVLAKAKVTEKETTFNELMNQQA
Assay: SPR; TF immobilised on a CM5 chip by amine coupling, analytes injected at 20 μL/min for 90 s; Biacore X, 22 °C; 10 mM HEPES pH 7.5, 150 mM NaCl, 3 mM EDTA, 0.005% P20; steady-state response against concentration, one-site Langmuir model; apparent Kd for ClpX
Details: both partners purified
Reminder that pKd means the negative base-10 logarithm of the concentration expressed in mol/L.

zinc-binding domain (ZBD) of ClpX (domain or fragment, E. coli, Tag removal rests on the words 'purified by the same procedure as TFN'; Isotopically labelled in one NMR experiment; also called ClpX ZBD; ZBD dimer; source: E. coli BL21(DE3), purified (Ni Sepharose, gel filtration; same procedure as TFN; 100 μM ZnCl2 added before size exclusion)) TDKRKDGSGKLLYCSFCGKSQHEVRKLIAGPSVYICDECVDLCNDIIREEIKEVAPHRER: 4.89

Pending binder:
Exercise: Please give measured pKd of the following entry: λ phage replication protein λO (natural protein, UniProt P03688 1-333, looked up, replication protein O of phage λ) MTNTAKILNFGRGNFAGQERNVADLDDGYARLSNMLLEAYSGADLTKRQFKVLLAILRKTYGWNKPMDRITDSQLSEITKLPVKRCNEAKLELVRMNIIKQQGGMFGPNKNISEWCIPQNEGKSPKTRDKTSLKLGDCYPSKQGDTKDTITKEKRKDYSSENSGESSDQPENDLSVVKPDAAIQSGSKWGTAEDLTAAEWMFDMVKTIAPSARKPNFAGWANDIRLMRERDGRNHRDMCVLFRWACQDNFWSGNVLSPAKLRDKWTQLEINRNKQQAGVTASKPKLDLTNTDWIYGVDLKTSPHRWLTLTVSRCVGSPTTCRNSTTKSRRYSR
Key: 5.42
